Target: T1, Q8-AA
T1 chain: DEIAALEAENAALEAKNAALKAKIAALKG
Assay: two-hybrid library CCmax;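 note: natural log of median RNA to DNA barcode read ratio; higher means stronger binding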
Conditions: mean of both orientations
measuredProperty: interaction score

Use the examples below as a reference point.
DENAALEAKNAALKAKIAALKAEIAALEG [4H1513-AA]; -1.06
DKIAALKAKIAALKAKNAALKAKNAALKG [4H2944-AA]; -1.55
DEIAALEAEIAALEAENAALEAENAALEG [Q3-AA]; -1.09
DKNAALKAENAALEAEIAALEAKIAALKG [4H3718-AA]; 1.05
DKIAALKAKNAALKAENAALEAEIAALEG [Q7-AA]; 2.38

(1) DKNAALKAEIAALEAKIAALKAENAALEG [4H3627-AA]
(2) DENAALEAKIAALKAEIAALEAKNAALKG [4H1352-AA]
Sort 1 and 2 by interaction score descending and give the first. The response must carry the label of the picked entry.
1
(1: -0.702, 2: -1.22)
